Total Cell Count values, listed per item
System: Fibroblast
Assay: Multiplex assay against human fibroblast
Format: toxicity, cell-based
Conditions: 48 h, 1 µM, compound concentration 1 uM, replicate 2

{"compound": "CSc1ccccc1N1CCN(CCCCCC(=O)NC2CCCc3ccccc32)CC1.Cl (configuration not stated)", "target_or_test_system": "Fibroblast", "Total Cell Count": 124}
{"compound": "COc1c(C)cc(NC(=O)c2nn(Cc3ccc(F)cc3)c3c2CN(C(=O)c2ccc[nH]2)C[C@]3(C)C(N)=O)cc1C", "target_or_test_system": "Fibroblast", "Total Cell Count": 91}
{"compound": "COc1cc(C(=O)N(CCCc2ccccc2)Cc2ccc(CC(=O)O)cc2)cc(OC)c1C", "target_or_test_system": "Fibroblast", "Total Cell Count": 211}
{"compound": "O=C(O)c1cc2ccccc2c(Cc2c(O)c(C(=O)O)cc3ccccc23)c1O [PAMOIC ACID]", "target_or_test_system": "Fibroblast", "Total Cell Count": 152}
{"compound": "O=S(=O)(c1ccccc1)c1cnc2c(N3CCNCC3)cccc2c1 [INTEPIRDINE]", "target_or_test_system": "Fibroblast", "Total Cell Count": 170}
{"compound": "Cc1ccc(F)cc1C(=O)Nc1ccc(C(=O)N2Cc3cccn3Cc3ccccc32)c(Cl)c1 [LIXIVAPTAN]", "target_or_test_system": "Fibroblast", "Total Cell Count": 111}
{"compound": "Cc1ccc(C(C)(O)c2nc3ccccc3s2)c(C)c1 (configuration not stated)", "target_or_test_system": "Fibroblast", "Total Cell Count": 174}
{"compound": "O=C(NCCO)c1cccc(-c2cc(Nc3ccc(OC(F)(F)F)cc3)ncn2)c1", "target_or_test_system": "Fibroblast", "Total Cell Count": 156}
{"compound": "Oc1c(CN2CCN(c3ccccn3)CC2)cc(Cl)c2cccnc12", "target_or_test_system": "Fibroblast", "Total Cell Count": 137}
{"compound": "CCCn1c(=O)c2[nH]c(C3CCCC3)nc2n(CCC)c1=O", "target_or_test_system": "Fibroblast", "Total Cell Count": 170}
{"compound": "COc1cc(NC(=O)CCN2CCC(OC(=O)Nc3ccccc3-c3ccccc3)CC2)c(Cl)cc1CNC[C@H](O)c1ccc(O)c2[nH]c(=O)ccc12 [BATEFENTEROL]", "target_or_test_system": "Fibroblast", "Total Cell Count": 130}
{"compound": "C[C@H]1[C@H]2CC[C@H]3[C@@H]4CC=C5C[C@@H](N(C)C)CC[C@]5(C)[C@H]4CC[C@]23CN1C [CONESSINE]", "target_or_test_system": "Fibroblast", "Total Cell Count": 104}
{"compound": "C[C@H](NC(=O)c1c(C(F)F)nn(C)c1Oc1cccc(C(F)(F)F)c1)c1ccc(C(=O)O)cc1 [PALUPIPRANT]", "target_or_test_system": "Fibroblast", "Total Cell Count": 147}
{"compound": "CCNC1(C(N)=O)CCN(c2ncnc3c2nc(-c2ccccc2Cl)n3-c2ccc(Cl)cc2)CC1 [OTENABANT]", "target_or_test_system": "Fibroblast", "Total Cell Count": 143}
{"compound": "Cc1ccccc1C(=O)Nc1ccc(C(=O)N2CCCC(N(C)C)c3ccccc32)cc1.Cl (configuration not stated)", "target_or_test_system": "Fibroblast", "Total Cell Count": 155}
{"compound": "Cc1nc2ccc(Oc3ccc(F)cc3)cc2c(=O)n1C[C@H]1CCCN(C(C)C)C1.Cl", "target_or_test_system": "Fibroblast", "Total Cell Count": 105}
{"compound": "CN1CCN2c3ncccc3Cc3ccccc3C2C1 (configuration not stated) [MIRTAZAPINE]", "target_or_test_system": "Fibroblast", "Total Cell Count": 161}
